experiment-notes: Plasma Stability Assay of Example A3, human plasma
test-context: 120 min; 5 μM, 37° C.; % of prodrug compound remaining
Give Human Plasma Prodrug (%) for every item shown.
Unit % implied. Number only.

Enquiry: Look at this molecule and give its reported Human Plasma Prodrug (%). COc1ccc([C@@]23CCC(OC(=O)c4cccc(N(C)C)c4)=C[C@@H]2N(C)CC3)cc1OC
Return: 71.1

Enquiry: For the molecule COc1ccc([C@@]23CCC(OC(=O)c4ccc(C#N)cc4)=C[C@@H]2N(C)CC3)cc1OC , what Human Plasma Prodrug (%) is on record?
Return: 13

Enquiry: Please report the recorded Human Plasma Prodrug (%) for COc1ccc([C@@]23CCC(OC(=O)c4ccc(F)cc4)=C[C@@H]2N(C)CC3)cc1OC .
Return: 55.3

Enquiry: Given the molecule COc1ccc([C@@]23CCC(OC(=O)c4c(C)cccc4C)=C[C@@H]2N(C)CC3)cc1OC , what is its reported Human Plasma Prodrug (%)?
Return: 81

Enquiry: Report Human Plasma Prodrug (%) for COc1ccc([C@@]23CCC(OC(=O)C(c4ccccc4)c4ccccc4)=C[C@@H]2N(C)CC3)cc1OC please.
Return: 32.4

Enquiry: Fill in: Human Plasma Prodrug (%) of COc1ccc([C@@]23CCC(OC(=O)C(C)(C)C)=C[C@@H]2N(C)CC3)cc1OC is ___
Return: 3.6

Enquiry: Fill in: Human Plasma Prodrug (%) of COc1ccc([C@@]23CCC(OC(=O)C4CC4)=C[C@@H]2N(C)CC3)cc1OC is ___
Return: 10.5

Enquiry: Which Human Plasma Prodrug (%) value belongs to C=C(C)C(=O)OC1=C[C@@H]2N(C)CC[C@]2(c2ccc(OC)c(OC)c2)CC1 ?
Return: 0.2

Enquiry: Returns the measured Human Plasma Prodrug (%) for the input molecule. Input: COc1ccc([C@@]23CCC(OC(=O)c4cccc(C)c4C)=C[C@@H]2N(C)CC3)cc1OC
Return: 66.1

Enquiry: For COc1ccc([C@@]23CCC(OC(=O)c4ccc(C(F)(F)F)cc4)=C[C@@H]2N(C)CC3)cc1OC , what is its reported Human Plasma Prodrug (%)?
Return: 63.4

Enquiry: Which value of Human Plasma Prodrug (%) has been reported for COc1ccc([C@@]23CCC(OC(=O)c4ccc(C(C)C)cc4)=C[C@@H]2N(C)CC3)cc1OC in the records?
Return: 78

Enquiry: Given COc1ccc([C@@]23CCC(OC(=O)c4cccc(C(C)(C)C)c4)=C[C@@H]2N(C)CC3)cc1OC , state its recorded Human Plasma Prodrug (%).
Return: 57

Enquiry: Recorded Human Plasma Prodrug (%) for C/C=C(\C)C(=O)OC1=C[C@@H]2N(C)CC[C@]2(c2ccc(OC)c(OC)c2)CC1 , please?
Return: 2.4

Enquiry: Which Human Plasma Prodrug (%) value is on record for COc1ccc([C@@]23CCC(OC(=O)c4cccc(C)c4)=C[C@@H]2N(C)CC3)cc1OC ?
Return: 62
